# subjectOfTest: EGFR (tyrosine 1173 phosphorylation) in Lung Cancer Cell Line A459 (Homo sapiens, UniProt P00533)
# Construct: endogenous in cells
# Sequence (P00533 25-1210): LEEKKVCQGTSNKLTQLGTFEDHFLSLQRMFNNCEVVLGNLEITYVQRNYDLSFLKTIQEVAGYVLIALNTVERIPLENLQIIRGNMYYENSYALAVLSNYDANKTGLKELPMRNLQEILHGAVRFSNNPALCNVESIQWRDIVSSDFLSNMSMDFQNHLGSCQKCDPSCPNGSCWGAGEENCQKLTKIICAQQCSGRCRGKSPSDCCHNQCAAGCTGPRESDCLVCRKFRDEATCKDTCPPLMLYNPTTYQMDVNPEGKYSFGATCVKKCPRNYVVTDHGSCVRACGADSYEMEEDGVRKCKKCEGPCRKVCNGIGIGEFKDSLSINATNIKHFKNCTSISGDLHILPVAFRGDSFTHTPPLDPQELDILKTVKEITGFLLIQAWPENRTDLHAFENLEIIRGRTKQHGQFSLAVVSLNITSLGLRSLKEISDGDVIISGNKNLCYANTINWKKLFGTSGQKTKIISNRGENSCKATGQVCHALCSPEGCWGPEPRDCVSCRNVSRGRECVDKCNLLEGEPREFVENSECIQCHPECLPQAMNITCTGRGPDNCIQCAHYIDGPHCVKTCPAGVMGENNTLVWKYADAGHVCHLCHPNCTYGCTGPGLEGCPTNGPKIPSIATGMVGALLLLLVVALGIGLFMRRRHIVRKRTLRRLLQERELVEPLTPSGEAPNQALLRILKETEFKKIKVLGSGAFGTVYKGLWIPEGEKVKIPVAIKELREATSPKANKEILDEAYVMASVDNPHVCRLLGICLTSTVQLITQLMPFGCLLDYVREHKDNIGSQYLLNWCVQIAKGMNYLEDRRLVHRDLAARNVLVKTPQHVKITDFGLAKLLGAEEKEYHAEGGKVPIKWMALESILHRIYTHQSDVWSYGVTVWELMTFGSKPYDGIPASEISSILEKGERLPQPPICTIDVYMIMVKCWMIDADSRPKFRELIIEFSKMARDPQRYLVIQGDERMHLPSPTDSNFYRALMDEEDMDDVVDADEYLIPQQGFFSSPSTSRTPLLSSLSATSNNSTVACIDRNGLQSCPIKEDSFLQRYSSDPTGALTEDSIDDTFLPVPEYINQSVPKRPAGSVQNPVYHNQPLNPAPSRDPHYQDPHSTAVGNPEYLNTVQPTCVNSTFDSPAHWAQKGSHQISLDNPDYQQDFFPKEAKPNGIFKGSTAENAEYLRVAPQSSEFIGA
# experimentalProtocol: EGFR Autophosphorylation Inhibition Assay in Lung Cancer Cell Line A459
# conditionSet: EGF-induced phosphorylation of tyrosine 1173
Reported IC50 values are given for each entry in this list.

Solved cases below.
INSERT INTO results (smi, result) VALUES
  ('Clc1cccc(Sc2ncnc3c2[nH]c2ccccc23)c1', '100 to 1000 nM'),
  ('COc1cccc(-c2cc3c(Sc4ccc(F)cc4)ncnc3[nH]2)c1', '1000 to 10000 nM');

Task: For "COc1cccc(-c2cc3c(Sc4cccc(Br)c4)ncnc3[nH]2)c1" , what is its reported IC50?
Result: 100 to 1000 nM

====

# subjectOfTest: EGFR (S752-1759del) (Homo sapiens, UniProt P00533, DEL752-759)
# Sequence (P00533 with tags, fused parts or gaps DEL752-759 limits assumed): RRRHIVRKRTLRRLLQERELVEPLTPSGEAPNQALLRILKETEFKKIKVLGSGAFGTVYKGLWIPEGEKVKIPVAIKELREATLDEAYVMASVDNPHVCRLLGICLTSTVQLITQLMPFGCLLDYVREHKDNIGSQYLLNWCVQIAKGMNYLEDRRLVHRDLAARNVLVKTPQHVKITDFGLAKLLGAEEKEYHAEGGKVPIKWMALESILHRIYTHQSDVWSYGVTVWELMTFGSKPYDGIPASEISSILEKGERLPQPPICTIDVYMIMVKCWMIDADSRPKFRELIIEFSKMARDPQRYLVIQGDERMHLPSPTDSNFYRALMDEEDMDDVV
# experimentalProtocol: Binding of mutant-EGFR (phage-displayed kinase competition binding)
# Description: Methods for measuring binding affinities for interactions between small molecules and kinases including FLT3, c-KIT, ABL([…]) [a.k.a. […] The components of the assays include human kinases expressed as fusions to T7 bacteriophage particles and immobilized ligands that bind to the ATP site of the kinases. […] The term “ND” represents non-determined values. […]
observable: Kd

INSERT INTO assay_data (compound, result) VALUES
  ('Oc1ccc(-c2cc3c(Sc4ccccc4)ncnc3[nH]2)cc1 [Compound L2]', '< 100 nM'),
  ('Oc1ccc(-c2cc3c(Oc4cccc(Br)c4)ncnc3[nH]2)cc1 [Compound E3]', '< 100 nM');

Below: the item to evaluate.
Task: Kd lookup needed for Clc1ccc(Sc2ncnc3c2[nH]c2ccccc23)cc1Cl [Compound K5] , thanks.
Result: < 100 nM

====

# subjectOfTest: EGFR (E746-A750del) (Homo sapiens, UniProt P00533, DEL746-750)
# Sequence (P00533 with tags, fused parts or gaps DEL746-750): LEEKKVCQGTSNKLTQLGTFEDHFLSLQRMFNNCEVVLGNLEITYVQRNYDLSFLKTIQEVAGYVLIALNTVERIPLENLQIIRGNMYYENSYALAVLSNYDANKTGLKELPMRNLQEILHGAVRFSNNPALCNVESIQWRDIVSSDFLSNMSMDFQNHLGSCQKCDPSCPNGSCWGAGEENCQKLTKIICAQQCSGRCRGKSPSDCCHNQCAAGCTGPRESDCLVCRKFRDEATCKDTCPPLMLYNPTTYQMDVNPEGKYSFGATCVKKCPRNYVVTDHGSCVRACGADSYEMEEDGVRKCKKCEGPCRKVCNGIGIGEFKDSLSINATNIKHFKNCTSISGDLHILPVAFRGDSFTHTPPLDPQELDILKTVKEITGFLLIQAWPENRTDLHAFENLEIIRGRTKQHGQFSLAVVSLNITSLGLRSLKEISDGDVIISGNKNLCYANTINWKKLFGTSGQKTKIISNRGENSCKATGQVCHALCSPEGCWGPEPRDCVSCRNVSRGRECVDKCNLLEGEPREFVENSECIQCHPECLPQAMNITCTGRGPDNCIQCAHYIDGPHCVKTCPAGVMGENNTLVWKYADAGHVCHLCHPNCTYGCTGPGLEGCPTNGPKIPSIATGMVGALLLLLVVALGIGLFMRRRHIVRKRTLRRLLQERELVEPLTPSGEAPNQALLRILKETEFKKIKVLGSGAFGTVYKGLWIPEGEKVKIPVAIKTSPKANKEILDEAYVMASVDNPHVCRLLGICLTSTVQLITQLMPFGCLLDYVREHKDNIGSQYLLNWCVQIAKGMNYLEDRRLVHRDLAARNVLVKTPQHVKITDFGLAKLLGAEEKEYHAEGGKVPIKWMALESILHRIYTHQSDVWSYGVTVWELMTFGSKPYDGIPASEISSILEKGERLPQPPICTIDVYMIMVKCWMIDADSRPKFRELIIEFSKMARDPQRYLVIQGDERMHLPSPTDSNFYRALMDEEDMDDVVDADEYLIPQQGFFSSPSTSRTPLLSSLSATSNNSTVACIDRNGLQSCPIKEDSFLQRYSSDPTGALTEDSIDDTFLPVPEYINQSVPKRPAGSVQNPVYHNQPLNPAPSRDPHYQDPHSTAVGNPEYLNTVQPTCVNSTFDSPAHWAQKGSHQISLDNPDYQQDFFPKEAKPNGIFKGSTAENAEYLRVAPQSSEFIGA
# experimentalProtocol: Binding of mutant-EGFR (phage-displayed kinase competition binding)
observable: Kd

INSERT INTO measurements (compound, subjectoftest, observable, result) VALUES
  ('Clc1ccc(Sc2ncnc3c2[nH]c2ccccc23)cc1Cl [Compound K5]', 'EGFR (E746-A750del) (Homo sapiens, UniProt P00533, DEL746-750)', 'Kd', '< 100 nM');

Task: # returns recorded Kd (system: EGFR (E746-A750del) (Homo sapiens, UniProt P00533, DEL746-750)) for Oc1ccc(-c2cc3c(Sc4ccccc4)ncnc3[nH]2)cc1 [Compound L2]
Result: < 100 nM

Task: Recorded Kd for Oc1ccc(-c2cc3c(Oc4cccc(Br)c4)ncnc3[nH]2)cc1 [Compound E3] with EGFR (E746-A750del) (Homo sapiens, UniProt P00533, DEL746-750), please?
Result: < 100 nM

====

pKd: −log10 of the molar value.
Parameter pKd, tested on human EGFR (wildtype), EGFR(DKIN) (Homo sapiens), listed per item.

INSERT INTO assay_data (compound, result) VALUES
  ('COc1cccc(Sc2ncnc3[nH]c(-c4cccc(OC)c4)cc23)c1', '6.00 to 7.00'),
  ('COc1ccc(-c2cc3c(Sc4cccc(Cl)c4)ncnc3[nH]2)cc1', '> 7.00'),
  ('COc1cccc(-c2cc3c(Sc4ccc(C(C)(C)C)cc4)ncnc3[nH]2)c1', '5.00 to 6.00'),
  ('COc1ccc(-c2cc3c(Sc4ccc(Cl)c(Cl)c4)ncnc3[nH]2)cc1', '6.00 to 7.00'),
  ('Cc1ccc(-c2cc3c(Sc4cccc(F)c4)ncnc3[nH]2)cc1', '6.00 to 7.00'),
  ('Cc1cccc(Sc2ncnc3[nH]c(-c4ccc(O)cc4)cc23)c1', '> 7.00'),
  ('COc1cccc(-c2cc3c(Sc4cccc(Br)c4)ncnc3[nH]2)c1', '> 7.00'),
  ('Brc1cccc(Sc2ncnc3c2[nH]c2ccccc23)c1', '> 7.00'),
  ('COc1cccc(-c2cc3c(Oc4cccc(F)c4)ncnc3[nH]2)c1', '6.00 to 7.00'),
  ('COc1cccc(-c2cc3c(Oc4cc(C)cc(C)c4)ncnc3[nH]2)c1', '6.00 to 7.00');

Task: Identify the measured pKd of "COc1ccc(-c2cc3c(Sc4cccc(C(F)(F)F)c4)ncnc3[nH]2)cc1" for human EGFR (wildtype), EGFR(DKIN) (Homo sapiens).
Result: 6.00 to 7.00

Task: Kindly state the measured pKd obtained for "COc1cccc(-c2cc3c(Sc4cccc(F)c4)ncnc3[nH]2)c1" with human EGFR (wildtype), EGFR(DKIN) (Homo sapiens).
Result: > 7.00

Task: Lab note: need pKd with human EGFR (wildtype), EGFR(DKIN) (Homo sapiens) for entry "COc1ccc(Sc2ncnc3[nH]c(-c4ccc(O)cc4)cc23)cc1" , please look it up.
Result: 6.00 to 7.00

Task: Test system human EGFR (wildtype), EGFR(DKIN) (Homo sapiens); read-out pKd; what value for "Oc1ccc(-c2cc3c(Sc4cccc(F)c4)ncnc3[nH]2)cc1" ?
Result: > 7.00

Task: Form entry - test system: human EGFR (wildtype), EGFR(DKIN) (Homo sapiens); read-out: pKd; compound: "COc1ccc(-c2cc3c(Sc4ccc(F)cc4)ncnc3[nH]2)cc1"
Result: > 7.00

Task: Value wanted: pKd (human EGFR (wildtype), EGFR(DKIN) (Homo sapiens)) of entry "Oc1cccc(Sc2ncnc3oc(-c4ccccc4)c(-c4ccccc4)c23)c1"
Result: 6.00 to 7.00

Task: Which measured pKd belongs to "Fc1ccc(Sc2ncnc3c2[nH]c2ccccc23)cc1" , tested on human EGFR (wildtype), EGFR(DKIN) (Homo sapiens)?
Result: > 7.00

Task: Param readout = pKd; param system = human EGFR (wildtype), EGFR(DKIN) (Homo sapiens); param query = Cc1cc(C)cc(Oc2ncnc3[nH]c(-c4ccc(O)cc4)cc23)c1 [Compound E2] ; response: value
Result: > 7.00
